Values were extracted from patent US10231954B2.

# Experimental system: WNK1 (Homo sapiens, UniProt Q9H4A3)
# Sequence (Q9H4A3 whole entry, species assumed): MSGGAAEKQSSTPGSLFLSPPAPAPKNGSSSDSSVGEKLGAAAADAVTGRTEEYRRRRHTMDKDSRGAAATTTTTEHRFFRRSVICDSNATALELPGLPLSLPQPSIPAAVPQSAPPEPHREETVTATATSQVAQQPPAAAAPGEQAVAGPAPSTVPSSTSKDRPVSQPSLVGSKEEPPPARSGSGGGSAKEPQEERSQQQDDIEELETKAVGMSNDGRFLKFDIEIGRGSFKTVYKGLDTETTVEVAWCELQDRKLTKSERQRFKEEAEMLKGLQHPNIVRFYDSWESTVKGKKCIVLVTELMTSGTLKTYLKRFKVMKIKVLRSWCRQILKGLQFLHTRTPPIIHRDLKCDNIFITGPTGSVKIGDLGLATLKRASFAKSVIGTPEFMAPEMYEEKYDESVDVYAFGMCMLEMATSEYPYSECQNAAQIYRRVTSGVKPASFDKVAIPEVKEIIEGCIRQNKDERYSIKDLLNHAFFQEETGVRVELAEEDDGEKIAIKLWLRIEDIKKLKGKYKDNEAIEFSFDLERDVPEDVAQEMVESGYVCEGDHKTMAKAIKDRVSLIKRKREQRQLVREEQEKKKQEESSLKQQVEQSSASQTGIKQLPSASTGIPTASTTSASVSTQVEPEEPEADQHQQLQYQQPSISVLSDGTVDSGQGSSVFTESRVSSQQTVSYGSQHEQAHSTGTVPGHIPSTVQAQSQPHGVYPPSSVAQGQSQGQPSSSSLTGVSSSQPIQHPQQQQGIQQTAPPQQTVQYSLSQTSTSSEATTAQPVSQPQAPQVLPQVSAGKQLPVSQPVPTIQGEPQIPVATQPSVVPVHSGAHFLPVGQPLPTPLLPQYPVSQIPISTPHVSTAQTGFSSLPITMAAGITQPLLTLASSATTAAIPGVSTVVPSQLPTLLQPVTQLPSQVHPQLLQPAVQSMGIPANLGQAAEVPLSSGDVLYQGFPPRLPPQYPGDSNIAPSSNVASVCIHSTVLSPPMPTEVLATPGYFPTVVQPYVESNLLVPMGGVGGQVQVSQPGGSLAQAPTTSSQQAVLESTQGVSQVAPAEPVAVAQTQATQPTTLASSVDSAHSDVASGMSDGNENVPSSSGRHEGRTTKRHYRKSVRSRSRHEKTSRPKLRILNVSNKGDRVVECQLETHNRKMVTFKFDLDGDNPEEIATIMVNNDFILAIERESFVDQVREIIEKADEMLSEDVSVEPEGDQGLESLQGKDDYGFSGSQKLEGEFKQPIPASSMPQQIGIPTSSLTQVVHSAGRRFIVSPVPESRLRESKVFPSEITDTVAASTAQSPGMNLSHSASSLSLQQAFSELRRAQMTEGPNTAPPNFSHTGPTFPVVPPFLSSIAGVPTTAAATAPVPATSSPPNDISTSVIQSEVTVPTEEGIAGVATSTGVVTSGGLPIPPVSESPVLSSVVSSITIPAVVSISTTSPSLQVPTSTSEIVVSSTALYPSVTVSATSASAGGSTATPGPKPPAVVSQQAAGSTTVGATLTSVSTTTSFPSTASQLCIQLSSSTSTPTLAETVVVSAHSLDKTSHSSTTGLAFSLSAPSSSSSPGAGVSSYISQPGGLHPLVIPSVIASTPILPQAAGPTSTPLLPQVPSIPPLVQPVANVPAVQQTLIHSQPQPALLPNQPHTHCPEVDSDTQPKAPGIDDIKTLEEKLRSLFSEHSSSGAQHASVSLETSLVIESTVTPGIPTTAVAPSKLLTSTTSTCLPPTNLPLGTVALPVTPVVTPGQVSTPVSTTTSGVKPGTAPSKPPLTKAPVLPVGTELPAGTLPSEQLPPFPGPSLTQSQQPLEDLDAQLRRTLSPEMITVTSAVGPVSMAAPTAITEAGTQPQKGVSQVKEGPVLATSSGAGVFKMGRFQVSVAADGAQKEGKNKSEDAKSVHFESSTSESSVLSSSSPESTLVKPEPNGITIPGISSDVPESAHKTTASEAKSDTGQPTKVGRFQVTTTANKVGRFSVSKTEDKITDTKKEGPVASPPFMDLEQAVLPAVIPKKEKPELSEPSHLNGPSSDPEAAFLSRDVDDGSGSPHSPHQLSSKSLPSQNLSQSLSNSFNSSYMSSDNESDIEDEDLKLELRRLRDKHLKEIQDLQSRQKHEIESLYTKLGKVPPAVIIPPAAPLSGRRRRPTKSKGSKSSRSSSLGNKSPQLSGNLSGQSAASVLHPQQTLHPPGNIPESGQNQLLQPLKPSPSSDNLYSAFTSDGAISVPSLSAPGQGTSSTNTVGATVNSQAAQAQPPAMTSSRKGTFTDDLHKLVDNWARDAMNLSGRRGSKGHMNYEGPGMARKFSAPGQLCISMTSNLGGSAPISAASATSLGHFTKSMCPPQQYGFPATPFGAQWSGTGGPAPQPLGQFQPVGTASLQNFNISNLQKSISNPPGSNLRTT
# Procedure text: Kinase profiling WNK1
# Assay type: biochemical
# Reported conditions: 100 micromolar inhibitor concentration; 100 is no change
// reported residual kinase activity, WNK1 for each item listed
Quantity kind: residual kinase activity, WNK1

• O=C(Nc1nc2ccc(O)cc2s1)c1ccncc1 = 89
• O=C(Nc1nc2cc(O)ccc2s1)c1cccnc1 = 103
• CC(=O)Nc1nc2ccccc2s1 = 98
• O=C(Nc1nc2ccc(O)cc2s1)c1ccccc1 = 108

---

Listing of entries alongside the reported residual kinase activity, EPH-B1.
# Experimental system: EPH-B1 (Homo sapiens, UniProt P54762)
# Sequence (P54762 18-984): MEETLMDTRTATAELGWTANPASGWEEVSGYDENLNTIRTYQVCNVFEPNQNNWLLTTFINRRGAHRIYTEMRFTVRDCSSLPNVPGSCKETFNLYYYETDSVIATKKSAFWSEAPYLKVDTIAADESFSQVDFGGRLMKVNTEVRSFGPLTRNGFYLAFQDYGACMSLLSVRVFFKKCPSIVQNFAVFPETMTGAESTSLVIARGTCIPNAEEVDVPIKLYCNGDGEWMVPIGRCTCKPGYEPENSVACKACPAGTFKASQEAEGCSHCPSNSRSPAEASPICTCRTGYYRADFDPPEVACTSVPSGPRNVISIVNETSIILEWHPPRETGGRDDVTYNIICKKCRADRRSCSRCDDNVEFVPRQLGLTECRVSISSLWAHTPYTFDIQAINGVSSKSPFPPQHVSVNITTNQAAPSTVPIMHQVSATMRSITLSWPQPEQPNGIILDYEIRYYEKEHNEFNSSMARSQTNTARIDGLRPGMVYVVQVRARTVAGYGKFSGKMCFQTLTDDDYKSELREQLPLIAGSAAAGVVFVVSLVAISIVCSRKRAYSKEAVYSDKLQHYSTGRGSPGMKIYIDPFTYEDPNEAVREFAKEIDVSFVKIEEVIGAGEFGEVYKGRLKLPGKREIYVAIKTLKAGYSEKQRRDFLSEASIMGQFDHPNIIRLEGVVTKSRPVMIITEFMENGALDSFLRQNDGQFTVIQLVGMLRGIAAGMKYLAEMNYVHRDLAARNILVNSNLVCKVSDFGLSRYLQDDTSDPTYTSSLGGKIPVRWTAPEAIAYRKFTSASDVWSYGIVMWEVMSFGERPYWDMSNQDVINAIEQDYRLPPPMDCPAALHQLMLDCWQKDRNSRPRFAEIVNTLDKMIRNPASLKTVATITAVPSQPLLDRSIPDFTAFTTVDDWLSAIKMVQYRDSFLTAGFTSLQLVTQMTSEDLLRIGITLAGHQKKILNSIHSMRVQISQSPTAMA
# Procedure text: Kinase profiling EPH-B1
# Assay type: biochemical
# Reported conditions: 100 micromolar inhibitor concentration; 100 is no change
Quantity kind: residual kinase activity, EPH-B1

- O=C(Nc1nc2ccc(O)cc2s1)c1ccncc1: 93
- O=C(Nc1nc2cc(O)ccc2s1)c1ccccn1: 98
- O=C(Nc1nc2ccc(O)cc2s1)c1ccccn1: 94
- CC(=O)Nc1nc2cc(C)ccc2s1: 103
- O=C(Nc1nc2cc(O)ccc2s1)c1cccnc1: 104
- O=C(Nc1nc2ccc(O)cc2s1)c1cccnc1: 93
- CC(=O)Nc1nc2ccccc2s1: 97
- O=C(Nc1nc2ccc(O)cc2s1)c1ccccc1: 98
- O=C(Nc1nc2cc(O)ccc2s1)c1ccncc1: 99
